# experiment description: Phase 1 Part 2: cerebrospinal fluid (CSF) pharmacokinetics after multiple BID doses
# Assay type: in vivo, human
# test settings: both sexes, human, oral; CSF, 500 mg BID, Day 12, elderly subjects, median (min, max)
readout type: Tmax

Lab book: Tmax of CC(=O)Nc1nnc(N2CCN([C@@H](C)c3ccc4c(c3)OCO4)CC2)s1 noted as 2.02 h

* * *

# experiment description: Phase 1 Part 2: multiple BID doses for 12 days, plasma pharmacokinetics
# Assay type: in vivo, human
# test settings: both sexes, human, plasma, oral, 250 mg, 250 mg BID, Day 12, elderly subjects, plasma, arithmetic mean; read-out: t1/2 (converted)
readout type: half-life
Kindly write the number and append the unit.

Lab book: half-life of CC(=O)Nc1nnc(N2CCN([C@@H](C)c3ccc4c(c3)OCO4)CC2)s1 noted as 10.2 h
